Reference for the values: a melting point compilation (Tetko et al.; mined from patent text by program, amines drawn as free bases though some values may be those of a salt)

QUANTITY: melting point

Challenge: For FC(F)(F)c1ccc(-c2cc(Oc3ccc4cccnc4c3)ncn2)cc1 , what is its reported melting point?
Response given: 178 to 180 °C

Challenge: For COC(=O)c1ccc(Cl)cc1NC(=O)CSc1ccc(C)c(C)c1 , what is its reported melting point?
Response given: 90 to 91 °C

Next:
Challenge: For CC(C)ON=C(c1cccc(O)c1)n1cncn1 , what is its reported melting point?
Response given: 160 to 163 °C

Challenge: For c1cc(N2CCNCC2)c2nccnc2c1 , what is its reported melting point?
Response given: 106 to 108 °C

###

QUANTITY: melting point

Challenge: For CCOC(=O)C(C(=O)C(F)(F)F)=C(Cc1ccccc1)C(N)C(=O)OCC (centres undefined) , what is its reported melting point?
Response given: 63 to 65 °C

Challenge: For COc1cccc(C(=O)Nc2ccc3sc(C)nc3c2Cl)c1 , what is its reported melting point?
Response given: 177 to 179 °C

Next:
Challenge: For O=C(O)CCCCCCC1C(=O)NC(=O)N1CCCCCc1ccccc1 (centres undefined) , what is its reported melting point?
Response given: 90 to 92 °C

Challenge: For N#Cc1ccccc1/C=C/C=O , what is its reported melting point?
Response given: 107 to 110 °C

Challenge: For O=C(Nc1cc2c(s1)-c1ccccc1OC2C1=CCCC=C1)C(F)(F)F (centres undefined) , what is its reported melting point?
Response given: 174 to 176 °C

Challenge: For COc1ccc(C(=O)N2c3ccccc3C(N3CCSc4ccccc43)CC2C)cc1OC (centres undefined) , what is its reported melting point?
Response given: 113 to 114 °C

Challenge: For COc1ccc(CCNC(=O)C(=O)NCc2ccncc2)cc1OC1CCCC1 , what is its reported melting point?
Response given: 129 to 131 °C

Challenge: For COc1ccc(CS[C@H]2C[C@@H](C(=O)N3CCN(C)CC3)N(C(=O)OCc3ccc([N+](=O)[O-])cc3)C2)cc1 , what is its reported melting point?
Response given: 140 to 141 °C

Challenge: For COC(=O)c1c2c(c3c(C)c(OC)c(OC)c(OC)c3c1-c1ccc(OC)c(OC)c1)OCOC2=O , what is its reported melting point?
Response given: 84 to 85 °C
